# study.target: T1, human TNF-α (human, UniProt P01375 77-233)
# T1 construct: It was biotinylated in some screening assays; also called hTNF-α; hTNF
# T1 sequence (P01375 77-233 limits assumed): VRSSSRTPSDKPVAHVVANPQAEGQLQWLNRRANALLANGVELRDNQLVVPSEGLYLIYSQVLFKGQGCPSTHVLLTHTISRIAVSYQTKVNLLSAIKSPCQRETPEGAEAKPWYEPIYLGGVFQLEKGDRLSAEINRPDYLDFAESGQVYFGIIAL
# procedure.text: ELISA, Fab dilution series on human TNF-α (Example 1; the filing does not say which of its two ELISA formats: hTNF-α-coated plate, or Fab captured on anti-human kappa with 5 nM biotinylated hTNF-α)
// reported EC50 (read off the curve) for each item listed

Use the examples below as a reference point.
INSERT INTO results (binder, recorded_measurement) VALUES
  ('2C6K Fab fragment (Fab, name in Kabat numbering, V domains shown) VH: EVQLVESGGGLVQPGGSLRLSCAASGFKFSNHWMNWVRQAPGKGLEWVGEIRSKSINSATHYARSVKGRFTISRDDSKNSLYLQMNSLKTEDTAVYYCARNYYGSTYDHWGQGTLVTVSS VL: EIVLTQSPDFQSVTPKEKVTITCRASQFVGLSIHWYQQKPDQSPKLLIKYASEYMSGVPSRFSGSGSGTDFTLTINSLEAEDAATYYCQQSHSWHFTFGQGTKVEIK', '~0.02 µg/mL'),
  ('A10P Fab fragment (Fab, name in Kabat numbering, V domains shown) VH: EVQLVESGGGLVQPGGSLRLSCAASGFPFSNHWMNWVRQAPGKGLEWVGEIRSKSMNSATHYAESVKGRFTISRDDSKNSLYLQMNSLKTEDTAVYYCARNYYGSTYDHWGQGTLVTVSS VL: EIVLTQSPDFQSVTPKEKVTITCRASQFVGYSIHWYQQKPDQSPKLLIKYASESRSGVPSRFSGSGSGTDFTLTINSLEAEDAATYYCQQSHSWHFTFGQGTKVEIK', '~0.02 µg/mL');

Now look at this entry.
Please report the measured EC50 (read off the curve) for A10K Fab fragment (Fab, V domains shown, Fab released from the E. coli periplasm; Mutations against hu1: light S31Y, M55R; heavy T28K, I53M) VH: EVQLVESGGGLVQPGGSLRLSCAASGFKFSNHWMNWVRQAPGKGLEWVGEIRSKSMNSATHYAESVKGRFTISRDDSKNSLYLQMNSLKTEDTAVYYCARNYYGSTYDHWGQGTLVTVSS VL: EIVLTQSPDFQSVTPKEKVTITCRASQFVGYSIHWYQQKPDQSPKLLIKYASESRSGVPSRFSGSGSGTDFTLTINSLEAEDAATYYCQQSHSWHFTFGQGTKVEIK
~0.02 µg/mL
